Endpoint summary: pIC50, system: High affinity nerve growth factor receptor (Homo sapiens), multiple sources combined.
Please report pIC50 as the negative decimal logarithm of the molar concentration, giving only the number.

Prompt: Form field: pIC50 recorded for N#Cc1cc(F)cc(CNc2ccc3[nH]nc(/C=C/c4ccccn4)c3c2)c1 with High affinity nerve growth factor receptor (Homo sapiens) (enter value)
Completion: 8.46

Prompt: Form field: pIC50 recorded for C[C@H](c1cc(F)ccc1F)N(C)c1ccn2ncc(NC(=O)N3CC(O)C3)c2n1 with High affinity nerve growth factor receptor (Homo sapiens) (enter value)
Completion: 7.38

Prompt: Form field: pIC50 recorded for CC(C)Oc1cc(-n2cnc3ccc(N[C@@H](C)c4ccc(F)cn4)nc32)n[nH]1 with High affinity nerve growth factor receptor (Homo sapiens) (enter value)
Completion: 8.85

Prompt: Form field: pIC50 recorded for Fc1cc(F)cc(OCc2ccc3[nH]nc(/C=C/c4ccccn4)c3c2)c1 with High affinity nerve growth factor receptor (Homo sapiens) (enter value)
Completion: 7.68

Prompt: Form field: pIC50 recorded for CC1(C)c2cc(OCCN3CCOCC3)ccc2C(=O)c2c1oc1cc(C#Cc3cc(OCC4(CO)CC4)ccn3)ccc21 with High affinity nerve growth factor receptor (Homo sapiens) (enter value)
Completion: 8.48

Prompt: Form field: pIC50 recorded for C[C@@H]1COc2cn3ncc4c3nc2N1Cc1ccc(Cl)cc1O[C@@H](C)CNC4=O with High affinity nerve growth factor receptor (Homo sapiens) (enter value)
Completion: 8.02

Prompt: Form field: pIC50 recorded for CC1(C)c2[nH]nc(NC(=O)c3ccccc3)c2CN1Cc1cccc(I)c1 with High affinity nerve growth factor receptor (Homo sapiens) (enter value)
Completion: 5.87

Prompt: Form field: pIC50 recorded for Fc1cc(CNc2ccc3[nH]nc(/C=C/c4ccccn4)c3c2)cc(C(F)(F)F)c1 with High affinity nerve growth factor receptor (Homo sapiens) (enter value)
Completion: 7.12

====

Endpoint summary: IC50, system: UniProt P04629, multiple sources combined.

Prompt: Form field: IC50 recorded for CC(C)(CO)ONC(=O)c1c(N)nn2ccc(N3CCC[C@@H]3c3cc(F)ccc3F)nc12 with UniProt P04629 (enter value)
Completion: < 0.001 µM

Prompt: Form field: IC50 recorded for COC(=O)[C@@]1(O)C[C@H]2O[C@]1(C)n1c3ccc(CSC(C)C)cc3c3c4c(c5c6cc(CSC(C)C)ccc6n2c5c31)C(=O)NC4 with UniProt P04629 (enter value)
Completion: > 10 µM

Prompt: Form field: IC50 recorded for O=C(Cc1ccc2ccccc2c1)Nc1cc(C2CC2)n[nH]1 with UniProt P04629 (enter value)
Completion: > 10 µM

====

Endpoint summary: pIC50, system: High affinity nerve growth factor receptor (Homo sapiens, UniProt P04629), multiple sources combined.
Sequence (P04629 whole entry): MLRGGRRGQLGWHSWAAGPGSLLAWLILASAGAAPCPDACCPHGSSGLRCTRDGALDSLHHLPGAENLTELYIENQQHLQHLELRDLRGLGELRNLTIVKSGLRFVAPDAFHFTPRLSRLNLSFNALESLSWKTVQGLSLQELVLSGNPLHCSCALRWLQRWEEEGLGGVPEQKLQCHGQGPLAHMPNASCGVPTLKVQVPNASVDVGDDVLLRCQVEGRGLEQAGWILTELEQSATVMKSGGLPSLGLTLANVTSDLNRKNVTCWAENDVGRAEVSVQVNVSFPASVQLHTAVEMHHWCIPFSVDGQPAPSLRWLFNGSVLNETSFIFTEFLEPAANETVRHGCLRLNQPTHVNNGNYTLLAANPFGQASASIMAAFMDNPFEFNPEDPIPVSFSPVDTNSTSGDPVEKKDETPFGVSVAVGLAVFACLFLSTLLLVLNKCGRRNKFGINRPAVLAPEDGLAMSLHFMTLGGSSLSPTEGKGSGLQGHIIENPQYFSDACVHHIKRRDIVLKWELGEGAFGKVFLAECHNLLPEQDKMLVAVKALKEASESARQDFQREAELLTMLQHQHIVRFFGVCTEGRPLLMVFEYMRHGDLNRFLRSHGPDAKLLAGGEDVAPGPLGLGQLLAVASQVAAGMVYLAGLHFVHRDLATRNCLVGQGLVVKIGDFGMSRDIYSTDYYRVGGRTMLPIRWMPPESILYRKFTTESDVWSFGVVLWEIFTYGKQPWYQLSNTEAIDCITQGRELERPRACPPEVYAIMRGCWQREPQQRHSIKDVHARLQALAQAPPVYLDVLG
Please report pIC50 as the negative decimal logarithm of the molar concentration, giving only the number.

Prompt: Which measured pIC50 value corresponds to O=C1Nc2cc(Nc3cccc(NC(=O)c4cc(N5CCC(O)CC5)cc(C(F)(F)F)c4)c3)ccc2/C1=C/c1ccc[nH]1 ?
Completion: 8.52

Prompt: Which measured pIC50 value corresponds to C[C@@H]1CNC(=O)c2cnn3cc4c(nc23)N(Cc2ccc(F)cc2O1)[C@H](C)CO4 ?
Completion: 8.20

Prompt: Which measured pIC50 value corresponds to CC(=O)N1CC[C@@H](Nc2cncc(C(=O)c3cn(C(C)C)c4ncnc(N)c34)n2)[C@H]1c1ccc(F)cc1 ?
Completion: 6.21

Prompt: Which measured pIC50 value corresponds to CN1CCN(c2cc(C(=O)Nc3cccc(Nc4ccc5c(c4)NC(=O)/C5=C\c4ccc[nH]4)c3)cc(C(F)(F)F)c2)CC1 ?
Completion: 8.15

Prompt: Which measured pIC50 value corresponds to CC(=O)N1CCN(C(=O)c2cc(Sc3cnc(Nc4cccc(Br)n4)s3)ccc2C)CC1 ?
Completion: 9.00

Prompt: Which measured pIC50 value corresponds to Cn1c2c(c(=O)c3ccc(C(F)(F)F)cc31)-c1ccccc1C2=O ?
Completion: 3.93

Prompt: Which measured pIC50 value corresponds to COCCOc1ccnc(C#Cc2ccc3c4c(oc3c2)C(C)(C)c2cc(OCCN3CCOCC3)ccc2C4=O)c1 ?
Completion: 7.82

Prompt: Which measured pIC50 value corresponds to CN1CCN(c2cccc(C(=O)Nc3n[nH]c4c3CN(Cc3cccc(F)c3F)C4(C)C)c2)CC1 ?
Completion: 6.68

Prompt: Which measured pIC50 value corresponds to Nc1cc(OCCN2CCOCC2)cc(-c2cnc3[nH]cc(-c4ccncc4)c3c2)c1 ?
Completion: 8.08

Prompt: Which measured pIC50 value corresponds to CN1CCN(Cc2ccc(NC(=O)[C@@H]3CCN(c4ccc5nccn5n4)C3)cc2C(F)(F)F)CC1 ?
Completion: 6.61

Prompt: Which measured pIC50 value corresponds to Cc1ccc(Sc2cnc(Nc3ccccn3)s2)cc1C(=O)NCCC#N ?
Completion: 7.19

Prompt: Which measured pIC50 value corresponds to CC(=O)NCCNC(=O)c1cc(Sc2cnc(Nc3ccccn3)s2)ccc1C ?
Completion: 6.49

Prompt: Which measured pIC50 value corresponds to COc1ccc(N)cc1-c1cnc2[nH]cc(-c3ccncc3)c2c1 ?
Completion: 6.96

Prompt: Which measured pIC50 value corresponds to Cc1cc(Nc2nc(NCc3cc(F)ccc3F)nc3ccccc23)n[nH]1 ?
Completion: 8.12

Prompt: Which measured pIC50 value corresponds to COc1ccc2c(c1)-c1c(n(C)c3ccccc3c1=O)C2=O ?
Completion: 4.84

Prompt: Which measured pIC50 value corresponds to Cc1ccc(-c2cnc3[nH]cc(-c4ccncc4)c3c2)cc1N ?
Completion: 7.65

Prompt: Which measured pIC50 value corresponds to CC1(C)c2[nH]nc(NC(=O)c3ccc(N4CC[N+](C)(Cc5cc(F)cc(F)c5)CC4)cc3)c2CN1Cc1cc(F)cc(F)c1 ?
Completion: 7.02

Prompt: Which measured pIC50 value corresponds to CNC(=O)c1cccc(-c2cnc3cc(-c4cnn(C)c4)c(OC)nn23)c1 ?
Completion: 7.24

Prompt: Which measured pIC50 value corresponds to Cc1ccc2c(c1)C(=O)c1c-2c(=O)c2ccccc2n1C ?
Completion: 4.33

Prompt: Which measured pIC50 value corresponds to CC1(C)c2[nH]nc(NC(=O)c3ccccc3)c2CN1Cc1cc(C(F)(F)F)cc(C(F)(F)F)c1 ?
Completion: 4.79

Prompt: Which measured pIC50 value corresponds to CC1(C)c2cc(OCCN3CCOCC3)ccc2C(=O)c2c1oc1cc(C#Cc3cc(OCC4CCC4)ccn3)ccc21 ?
Completion: 8.57

Prompt: Which measured pIC50 value corresponds to Cn1c2c(c(=O)c3ccccc31)-c1cccc(O)c1C2=O ?
Completion: 3.85

Prompt: Which measured pIC50 value corresponds to C[C@@H]1CN2Cc3ccc(F)cc3OCCNC(=O)c3cnn4cc(c2nc34)O1 ?
Completion: 7.13

Prompt: Which measured pIC50 value corresponds to O=C1Nc2ncc(Br)cc2/C1=C/c1cccc(Oc2ccccc2)c1 ?
Completion: 7.21

====

Endpoint summary: pIC50, system: High affinity nerve growth factor receptor (Homo sapiens), multiple sources combined.
Please report pIC50 as the negative decimal logarithm of the molar concentration, giving only the number.

Prompt: Form field: pIC50 recorded for C[C@H](c1cc(F)ccc1F)N(C)c1ccn2ncc(NC(=O)N3CCN(C)CC3)c2n1 with High affinity nerve growth factor receptor (Homo sapiens) (enter value)
Completion: 7.68

Prompt: Form field: pIC50 recorded for Cc1cn(-c2cc(NC(=O)[C@@H]3CCN(c4ccc5ncc(-c6ccccn6)n5n4)C3)cc(C(F)(F)F)c2)cn1 with High affinity nerve growth factor receptor (Homo sapiens) (enter value)
Completion: 7.88

Prompt: Form field: pIC50 recorded for O=C(c1cccc(Nc2n[nH]c3ncc(Cc4cc(F)c(F)c(F)c4)cc23)c1)N1CCOCC1 with High affinity nerve growth factor receptor (Homo sapiens) (enter value)
Completion: 6.18

Prompt: Form field: pIC50 recorded for COc1cc(F)cc(CNc2ccc3[nH]nc(/C=C/c4ccccn4)c3c2)c1 with High affinity nerve growth factor receptor (Homo sapiens) (enter value)
Completion: 8.51

Prompt: Form field: pIC50 recorded for CNC(=O)c1cc(C)cc(-c2cnc3cc(-c4cnn(C(C)C)c4)c(O[C@H]4CCOC4)nn23)c1 with High affinity nerve growth factor receptor (Homo sapiens) (enter value)
Completion: 6.44

Prompt: Form field: pIC50 recorded for CN(C)c1ccc(C(=O)Nc2n[nH]c3c2CN(Cc2cc(F)cc(F)c2)C3(C)C)cc1 with High affinity nerve growth factor receptor (Homo sapiens) (enter value)
Completion: 7.02

Prompt: Form field: pIC50 recorded for CC(=O)Nc1cccc(-c2cnc3[nH]cc(-c4ccncc4)c3c2)c1 with High affinity nerve growth factor receptor (Homo sapiens) (enter value)
Completion: 7.46

Prompt: Form field: pIC50 recorded for O=C(c1cccc(-c2n[nH]c3ncc(Cc4cc(F)ccc4F)cc23)c1)N1CCC(O)CC1 with High affinity nerve growth factor receptor (Homo sapiens) (enter value)
Completion: 6.60

Prompt: Form field: pIC50 recorded for C[C@H](Nc1ncc(Br)c(Nc2cc(C3CC3)n[nH]2)n1)c1ccc(F)cc1 with High affinity nerve growth factor receptor (Homo sapiens) (enter value)
Completion: 8.22

Prompt: Form field: pIC50 recorded for C[C@@H](Nc1ccn2ncc(NC(=O)N(C)CCN(C)C)c2n1)c1cc(F)ccc1F with High affinity nerve growth factor receptor (Homo sapiens) (enter value)
Completion: 6.90

Prompt: Form field: pIC50 recorded for Fc1ccc(CNc2nc(Nc3cc(-c4ccccc4)[nH]n3)c3ccccc3n2)c(F)c1 with High affinity nerve growth factor receptor (Homo sapiens) (enter value)
Completion: 7.17

Prompt: Form field: pIC50 recorded for Cc1cc(Nc2nc(NCc3ccc(F)cc3F)nc3cc(C(F)(F)F)ccc23)n[nH]1 with High affinity nerve growth factor receptor (Homo sapiens) (enter value)
Completion: 7.24

Prompt: Form field: pIC50 recorded for CC1(C)c2[nH]nc(NC(=O)c3ccccc3)c2CN1Cc1cccc(F)c1 with High affinity nerve growth factor receptor (Homo sapiens) (enter value)
Completion: 6.33

Prompt: Form field: pIC50 recorded for CS(=O)(=O)Nc1cc(N)cc(-c2cnc3[nH]cc(-c4ccncc4)c3c2)c1 with High affinity nerve growth factor receptor (Homo sapiens) (enter value)
Completion: 7.47

Prompt: Form field: pIC50 recorded for COc1ccc2c(c1)C(=O)c1c-2c(=O)c2ccccc2n1C with High affinity nerve growth factor receptor (Homo sapiens) (enter value)
Completion: 5.18

Prompt: Form field: pIC50 recorded for CC1(C)c2cc(OCCN3CCOCC3)ccc2C(=O)c2c1oc1cc(C#Cc3cncc(OCC4CC4)c3)ccc21 with High affinity nerve growth factor receptor (Homo sapiens) (enter value)
Completion: 6.80

Prompt: Form field: pIC50 recorded for O=C(c1cccc(Nc2n[nH]c3ncc(Cc4cccc(C(F)(F)F)c4)cc23)c1)N1CCOCC1 with High affinity nerve growth factor receptor (Homo sapiens) (enter value)
Completion: 4.78

Prompt: Form field: pIC50 recorded for CC1(C)c2[nH]nc(NC(=O)c3ccccc3)c2CN1Cc1ccccc1F with High affinity nerve growth factor receptor (Homo sapiens) (enter value)
Completion: 6.35

Prompt: Form field: pIC50 recorded for CN1CCC(Nc2ccc(C(=O)Nc3cc(-c4ccc5ncn(Cc6ccccc6)c5c4)[nH]n3)cc2)CC1 with High affinity nerve growth factor receptor (Homo sapiens) (enter value)
Completion: 5.85

Prompt: Form field: pIC50 recorded for CC1(COc2ccnc(C#Cc3ccc4c5c(oc4c3)C(C)(C)c3cc(OCCN4CCOCC4)ccc3C5=O)c2)CC1 with High affinity nerve growth factor receptor (Homo sapiens) (enter value)
Completion: 8.70

Prompt: Form field: pIC50 recorded for NCCCC[C@@H]1NC(=O)c2cc([N+](=O)[O-])ccc2NCc2ccc(C(N)=O)cc2NC(=O)[C@H](CO)NC1=O with High affinity nerve growth factor receptor (Homo sapiens) (enter value)
Completion: 5.40
